# Lookup of reported Tmax keyed by entry
assay: Tmax in Sprague-Dawley rat at 4 mg/kg, po by LC/MS/MS analysis; type: ADME, organism-based; conditions: in vivo

# CPD SMILES, VALUE UNITS, Tmax
rows = [
    ("CN1CCN(c2ccc(Nc3cc(-c4cccc(-n5ccc6cc(C7CC7)cc(F)c6c5=O)c4CO)cn(C)c3=O)nc2)CC1", "h", 4),
    ("CN(C)C(=O)N1CC=C(c2cc3c(-c4cccc(-n5ccc6cc(C7CC7)cc(F)c6c5=O)c4CO)ncnc3[nH]2)CC1", "h", 0.8),
    ("CN(C)C(=O)N1CC=C(c2cc3c(-c4cccc(-n5ccc6cc(C7CC7)cc(F)c6c5=O)c4CO)ccnc3[nH]2)CC1", "h", 1.9),
]

----------
assay: Half life in Sprague-Dawley rat at 4 mg/kg, po by LC/MS/MS analysis; format: ADME, organism-based; conditions: in vivo
ASSAY READOUT: half-life

# CPD SMILES, ASSAY READOUT, RESULT
records = [
    ("CN(C)C(=O)N1CC=C(c2cc3c(-c4cccc(-n5ccc6cc(C7CC7)cc(F)c6c5=O)c4CO)ncnc3[nH]2)CC1", "half-life", "5.4 h"),
    ("CN1CCN(c2ccc(Nc3cc(-c4cccc(-n5ccc6cc(C7CC7)cc(F)c6c5=O)c4CO)cn(C)c3=O)nc2)CC1", "half-life", "4.4 h"),
    ("CN(C)C(=O)N1CC=C(c2cc3c(-c4cccc(-n5ccc6cc(C7CC7)cc(F)c6c5=O)c4CO)ccnc3[nH]2)CC1", "half-life", "8.9 h"),
]

----------
experiment: Clearance in Sprague-Dawley rat at 4 mg/kg, po by LC/MS/MS analysis; format: ADME, organism-based; details: in vivo
ASSAY READOUT: CL/F (mL/min/kg)

# CPD SMILES, NUMBER
measured = [
    ("CN(C)C(=O)N1CC=C(c2cc3c(-c4cccc(-n5ccc6cc(C7CC7)cc(F)c6c5=O)c4CO)ncnc3[nH]2)CC1", 43.3),
    ("CN(C)C(=O)N1CC=C(c2cc3c(-c4cccc(-n5ccc6cc(C7CC7)cc(F)c6c5=O)c4CO)ccnc3[nH]2)CC1", 20),
    ("CN1CCN(c2ccc(Nc3cc(-c4cccc(-n5ccc6cc(C7CC7)cc(F)c6c5=O)c4CO)cn(C)c3=O)nc2)CC1", 53.3),
]

----------
# Lookup of reported pIC50 keyed by entry
molecular target: Tyrosine-protein kinase BTK (Homo sapiens, UniProt Q06187); assay: Inhibition of recombinant human His-tagged full length BTK expressed in baculovirus using biotin labeled peptide substrate after 1 hr by HRTF kinase/TR-FRET assay
Sequence (Q06187 whole entry): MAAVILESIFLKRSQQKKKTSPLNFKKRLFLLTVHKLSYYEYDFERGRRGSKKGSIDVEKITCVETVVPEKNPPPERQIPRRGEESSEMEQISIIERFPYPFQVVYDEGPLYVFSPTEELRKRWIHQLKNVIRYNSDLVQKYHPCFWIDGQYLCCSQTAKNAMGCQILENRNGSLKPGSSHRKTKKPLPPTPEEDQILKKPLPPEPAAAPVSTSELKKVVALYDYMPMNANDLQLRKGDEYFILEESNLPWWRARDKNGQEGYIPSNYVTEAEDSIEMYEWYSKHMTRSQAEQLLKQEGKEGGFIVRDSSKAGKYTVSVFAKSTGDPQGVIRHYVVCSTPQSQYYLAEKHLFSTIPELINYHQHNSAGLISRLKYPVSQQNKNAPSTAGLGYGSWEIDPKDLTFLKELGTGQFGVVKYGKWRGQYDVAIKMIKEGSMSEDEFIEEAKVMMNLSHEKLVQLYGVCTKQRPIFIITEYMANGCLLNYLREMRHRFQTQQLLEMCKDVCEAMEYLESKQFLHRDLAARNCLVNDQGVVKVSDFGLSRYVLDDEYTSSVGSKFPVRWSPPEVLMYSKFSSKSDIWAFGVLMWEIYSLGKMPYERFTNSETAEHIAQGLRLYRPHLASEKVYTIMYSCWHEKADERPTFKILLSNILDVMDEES
pIC50: −log10 of the molar value.
ASSAY READOUT: pIC50

# CPD SMILES, NUMBER
rows = [
    ("CN(C)C(=O)c1ccc(-c2cc3c(-c4cccc(-n5ccc6cc(C7CC7)cc(F)c6c5=O)c4CO)ccnc3[nH]2)cc1", 7.92),
    ("CS(=O)(=O)N1CC=C(c2cc3c(-c4cccc(-n5ccc6cc(C7CC7)cc(F)c6c5=O)c4CO)ccnc3[nH]2)CC1", 8.15),
    ("O=C(c1ccc(-c2cc3c(-c4cccc(-n5ccc6cc(C7CC7)cc(F)c6c5=O)c4CO)ccnc3[nH]2)cc1)N1CCCCC1", 7.42),
    ("CN(C)S(=O)(=O)N1CC=C(c2cc3c(-c4cccc(-n5ccc6cc(C7CC7)cc(F)c6c5=O)c4CO)ccnc3[nH]2)CC1", 8.01),
    ("Cc1cc2c(-c3cccc(-n4ccc5cc(C6CC6)cc(F)c5c4=O)c3CO)ccnc2[nH]1", 6.40),
    ("CC(=O)N1CC=C(c2cc3c(-c4cccc(-n5ccc6cc(C7CC7)cc(F)c6c5=O)c4CO)ccnc3[nH]2)CC1", 8.17),
    ("CC(=O)c1cc(-c2cc3c(-c4cccc(-n5ccc6cc(C7CC7)cc(F)c6c5=O)c4CO)ccnc3[nH]2)cs1", 7.11),
]

# credit: ChEMBL document CHEMBL4000147
